Molecular target: HER2 expressed on the surface of cells (human, UniProt P04626 23-1255)
Assay: cell-based or functional assay
Recorded growth inhibition span (percentage of cells killed), MDA-MB-175 cells, one value per entry.
Property Name: growth inhibition span (percentage of cells killed), MDA-MB-175 cells (%)

Variant 12471 (antibody, human IgG1, kappa, name in Kabat numbering, V domains shown, Kabat numbering; also called v12471; FSA version of v9996) VH: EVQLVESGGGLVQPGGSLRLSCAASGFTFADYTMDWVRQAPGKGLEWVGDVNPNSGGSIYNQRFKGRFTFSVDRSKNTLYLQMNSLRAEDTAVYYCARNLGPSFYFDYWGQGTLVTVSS VL: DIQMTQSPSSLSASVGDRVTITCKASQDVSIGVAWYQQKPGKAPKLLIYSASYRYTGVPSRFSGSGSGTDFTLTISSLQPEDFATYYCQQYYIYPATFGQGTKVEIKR ... 75
Variant 14021 (antibody, name in Kabat numbering, V domains shown, also called v14021) VH: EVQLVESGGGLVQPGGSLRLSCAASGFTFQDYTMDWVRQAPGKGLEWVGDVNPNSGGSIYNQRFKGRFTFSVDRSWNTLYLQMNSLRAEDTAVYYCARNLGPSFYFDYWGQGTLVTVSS VL: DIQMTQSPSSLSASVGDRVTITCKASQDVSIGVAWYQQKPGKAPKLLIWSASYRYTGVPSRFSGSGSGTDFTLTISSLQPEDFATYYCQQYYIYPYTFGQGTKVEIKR ... 82
